Exercise: state measured IC50 for each of the compounds provided.
tested on: A-673 cells; assay: Cell viability, crystal violet staining; type: cell-based; settings: Homo sapiens, A673, cell viability, read-out: A-673 IC50 (nM) Cell viability

{"Smiles Str": "CNC(=O)c1cc2cc(O)c(-c3ccc(N(C)[C@H]4C[C@]5(C)CC[C@](C)(C4)N5)nn3)cc2o1", "System": "A-673 cells", "IC50": "10 to 100 nM"}

# per-item lookup of IC50; items listed below
1. CCN(c1ccc(-c2cc(F)c(-c3cn[nH]c3)cc2O)nn1)[C@H]1C[C@]2(C)CC[C@](C)(C1)N2
2. CN(c1ccc(-c2cc(F)c(-c3ccn(CF)c(=O)c3)cc2O)nn1)[C@H]1C[C@]2(C)CC[C@](C)(C1)N2
3. CN(c1ccc(-c2cc(F)c(-c3cn[nH]c3)cc2O)nn1)[C@H]1C[C@]2(C)CC[C@](C)(C1)N2

Output:
1: 10 to 100 nM; 2: < 10 nM; 3: < 10 nM

----------
system: A-673 cells; experiment: Cell viability, crystal violet staining; format: cell-based; details: Homo sapiens, A673, cell viability, read-out: A-673 IC50 (nM) Cell viability
Readout Kind: IC50

{"Smiles Str": "CN(c1ccc(-c2ccc(-c3cc(F)nc(F)c3)cc2O)nn1)[C@H]1C[C@]2(C)CC[C@](C)(C1)N2", "IC50": "100 to 500 nM"}
{"Smiles Str": "CN(c1ccc(-c2ccc(-c3cn[nH]c3)cc2O)nn1)[C@@H]1C[C@H]2COC[C@@H](C1)N2", "IC50": "10 to 100 nM"}
{"Smiles Str": "CN(c1ccc(-c2ccc(-c3cn[nH]c3)cc2O)nn1)[C@@H]1C[C@@H]2C[C@H]1CN2", "IC50": "> 1000 nM"}

Now turn to the next molecule.
Task: Note IC50 for the molecule shown: COc1cc(-c2ccc(-c3ccc(N(C)[C@H]4C[C@]5(C)CC[C@](C)(C4)N5)nn3)c(O)c2)ccn1
Output: < 10 nM

----------
Exercise: state measured IC50 for each of the molecules provided.
Test system: A-673 cells
Assay: Cell viability, crystal violet staining
Type: cell-based
Conditions: Homo sapiens, A673, cell viability, read-out: A-673 IC50 (nM) Cell viability
Description: To measure cell viability, cells were plated in 96-well plastic tissue culture plates at a density of 5×10^3 cells/well. Twenty-four hours after plating, cells were treated with various SMSMs. […] Intensity of crystal violet staining, assessed at 570 nm and quantified using a Vmax Kinetic Microplate Reader and Softmax software (Molecular Devices Corp., Menlo Park, Calif.), were directly proportional to cell number. […] SMSMs that are effective were determined for various cells lines. […]

Example results:
{"Molecule": "CN(c1ccc(-c2ccc(-n3cc(F)cn3)cc2O)nn1)[C@H]1C[C@]2(C)CC[C@](C)(C1)N2 [compound 175]", "System": "A-673 cells", "Meas Value": "10 to 100 nM"}
{"Molecule": "CN(c1ccc(-c2cc(F)c(-n3cnc(C#N)c3)cc2O)nn1)[C@H]1C[C@]2(C)CC[C@](C)(C1)N2 [compound 197]", "System": "A-673 cells", "Meas Value": "> 1000 nM"}
{"Molecule": "[2H]C([2H])([2H])Oc1cc(-c2ccc(-c3ccc(N(C)[C@H]4C[C@]5(C)CC[C@](C)(C4)N5)nn3)c(O)c2)cnn1 [compound 205]", "System": "A-673 cells", "Meas Value": "< 10 nM"}

# per-item lookup of IC50; items listed below
1. [2H]C([2H])([2H])Oc1cc(-c2ccc(-c3ccc(N(C)[C@H]4C[C@]5(C)CC[C@](C)(C4)N5)nn3)c(O)c2)ccn1 [compound 172]
2. Oc1cc(-c2cn[nH]c2)ccc1-c1ccc(O[C@H]2C[C@H]3COC[C@@H](C2)N3)nn1 [compound 158]

Output:
["< 10 nM", "> 1000 nM"]
